EXPERIMENTAL_TARGET: Transient receptor potential cation channel subfamily V member 1 (Rattus norvegicus, UniProt O35433)
Sequence (O35433 whole entry): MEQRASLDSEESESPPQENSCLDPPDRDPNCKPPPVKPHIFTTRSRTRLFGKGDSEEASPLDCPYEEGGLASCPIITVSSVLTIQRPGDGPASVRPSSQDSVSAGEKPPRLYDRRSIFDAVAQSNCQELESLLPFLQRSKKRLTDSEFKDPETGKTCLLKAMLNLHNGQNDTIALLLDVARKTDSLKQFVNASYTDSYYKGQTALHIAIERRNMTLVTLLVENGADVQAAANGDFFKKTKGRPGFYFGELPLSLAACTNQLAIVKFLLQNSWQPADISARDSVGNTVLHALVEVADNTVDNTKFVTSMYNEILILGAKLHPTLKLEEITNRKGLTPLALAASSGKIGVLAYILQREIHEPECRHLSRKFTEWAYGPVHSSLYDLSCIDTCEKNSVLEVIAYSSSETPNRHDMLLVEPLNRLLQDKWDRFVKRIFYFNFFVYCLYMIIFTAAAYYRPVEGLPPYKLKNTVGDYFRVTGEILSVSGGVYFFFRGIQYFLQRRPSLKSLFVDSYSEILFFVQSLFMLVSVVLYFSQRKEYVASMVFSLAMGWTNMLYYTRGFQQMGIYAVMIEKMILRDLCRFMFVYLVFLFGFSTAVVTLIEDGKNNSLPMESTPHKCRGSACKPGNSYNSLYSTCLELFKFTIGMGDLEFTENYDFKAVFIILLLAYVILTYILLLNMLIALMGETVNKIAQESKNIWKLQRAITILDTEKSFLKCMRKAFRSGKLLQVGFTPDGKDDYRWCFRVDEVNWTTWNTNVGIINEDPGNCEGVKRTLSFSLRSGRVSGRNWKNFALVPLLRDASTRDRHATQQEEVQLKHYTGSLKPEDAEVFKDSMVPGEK
MEASUREMENT_NOTES: FLIPR Assay: The agonistic or antagonistic effect of the substances to be tested on the rat-species vanilloid receptor 1 (VR1/TRPV1) can be determined using the following assay. In this assay, the influx of Ca2+ through the receptor channel is quantified with the aid of a Ca2+-sensitive dye (type Fluo-4, Molecular Probes Europe BV, Leiden, the Netherlands) in a fluorescent imaging plate reader (FLIPR, Molecular Devices, Sunnyvale, USA).Method:Complete medium: 50 ml HAMS F12 nutrient mixture (Gibco Invitrogen GmbH, Karlsruhe, Germany) with10% by volume of FCS (foetal calf serum, Gibco Invitrogen GmbH, Karlsruhe, Germany, heat-inactivated);2 mM L-glutamine (Sigma, Munich, Germany);1% by weight of AA solution (antibiotic/antimyotic solution, PAA, Pasching, Austria) and 25 ng/ml NGF medium (2.5 S, Gibco Invitrogen GmbH, Karlsruhe, Germany).
ASSAY_READOUT: Ki (nM)
Numbers only, in nM.

Entry Cc1ccc(-n2nc(C(C)(C)C)cc2CNC(=O)C(C)c2ccc(NS(C)(=O)=O)c(F)c2)cc1 (stereo unspecified) ; Ki = 5.9
